Exercise: state measured activation for each of the molecules provided.
- systemName: Thyrotropin-releasing hormone receptor (Homo sapiens) (UniProt P34981)
- Sequence (P34981 whole entry, looked up): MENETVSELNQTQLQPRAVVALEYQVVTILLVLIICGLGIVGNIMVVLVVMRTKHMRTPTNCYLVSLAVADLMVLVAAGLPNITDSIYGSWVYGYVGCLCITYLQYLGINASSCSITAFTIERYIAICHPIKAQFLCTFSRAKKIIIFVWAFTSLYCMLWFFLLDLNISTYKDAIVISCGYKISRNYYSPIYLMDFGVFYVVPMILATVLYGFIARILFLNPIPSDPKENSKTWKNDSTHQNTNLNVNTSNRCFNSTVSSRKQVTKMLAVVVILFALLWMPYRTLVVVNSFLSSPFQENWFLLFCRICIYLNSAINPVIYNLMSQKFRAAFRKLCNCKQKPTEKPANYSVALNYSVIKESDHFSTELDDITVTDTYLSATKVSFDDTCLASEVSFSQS
- assayText: qHTS for Small Molecule Agonists and Allosteric Enhancers of Human TRH Receptor: Validation Screen for Agonists (AID 493127);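 note: intracellular calcium rise by fluo-8 fluorescence before TRH EC20 addition; 0% is about no effect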
- conditions: TRH receptor agonist cell assay; at 2 µM; hits give high values
- Method: NIH Chemical Genomics Center [NCGC] NIH Molecular Libraries Probe Centers Network [MLPCN] Assay Submitter (PI): Marvin Gershengorn […] For the HTS assay freshly prepared cells are plated at a density of 2000/well in 3 ul of complete DMEM medium containing 10% serum in 1536-well plates and cultured over night at 37 C in a humidified incubator with 5% CO2. […] For the assay, assay plates were loaded into the FDSS kinetic plate reader. […]
Give the quantity in %, number only.

q: Request body: readout activation, system Thyrotropin-releasing hormone receptor (Homo sapiens) (UniProt P34981), query COc1ccc(CCN(C)CCCC(C#N)(c2ccc(OC)c(OC)c2)C(C)C)cc1OC (stereo not given) . Return the value.
a: 7.06

q: And the next one, Cc1cc(C(C)(C)C)c(O)c(C)c1CC1=NCCN1 ?
a: 1.19

q: Similarly, NS(=O)(=O)c1cc2c(cc1Cl)NCNS2(=O)=O ?
a: 0.938

q: // same read-out, input: CNCCCC12CCC(c3ccccc31)c1ccccc12
a: 3.31

q: How about this molecule: CC(C(=O)O)c1cccc(C(=O)c2ccccc2)c1 (stereo not given)
a: 1.12

q: Here is the next molecule: Nc1nc2c(ncn2COC(CO)CO)c(=O)[nH]1
a: 0.625

q: Entry Clc1ccccc1C(c1ccccc1)(c1ccccc1)n1ccnc1 please
a: -13.1

q: Ok, now CN(C)C(=O)C(CCN1CCC(O)(c2ccc(Cl)cc2)CC1)(c1ccccc1)c1ccccc1
a: 17

q: Param item: Clc1ccc(C(c2ccccc2Cl)C(Cl)Cl)cc1 (stereo not given)
a: 1.38

q: // same read-out, input: COc1ccc2[nH]cc(CCNC(C)=O)c2c1
a: -2.38

q: Param item: OCCN1CCN(CCCN2c3ccccc3Sc3ccc(C(F)(F)F)cc32)CC1
a: 1.88

q: Okay, and NCCS(=O)(=O)O ?
a: 1.12

q: What would you report for COc1ccccc1OCC(O)CN1CCN(CC(=O)Nc2c(C)cccc2C)CC1 (stereo not given) ?
a: 0.375

q: Now the molecule O=C1c2c(O)ccc(O)c2C(=O)c2c(NCCNCCO)ccc(NCCNCCO)c21
a: 0.938

q: Can you check CS(=O)(=O)Nc1ccc([N+](=O)[O-])cc1Oc1ccccc1 next?
a: 1

q: // same read-out, input: CN1CCN(C2=Nc3cc(Cl)ccc3Nc3ccccc32)CC1
a: 3.31

q: Next entry: O=c1c(O)c(-c2ccc(O)c(O)c2)oc2cc(O)cc(O)c12
a: 0.938

q: Another molecule to look at: O=C(CCCN1CCC(O)(c2ccc(Cl)cc2)CC1)c1ccc(F)cc1
a: 4.81

q: Same for Cn1cnc2c1c(=O)[nH]c(=O)n2C
a: 0.562

q: Try this molecule next: N[C@@H](Cc1c[nH]c2ccc(O)cc12)C(=O)O
a: 0.125

q: Try this molecule too: Clc1ccc2c(c1)C(N1CCNCC1)=Nc1ccccc1O2
a: 4.19

q: Please give the result for NCCCCCC(=O)O too.
a: 0.0625

q: How about CCCNCC(O)COc1ccccc1C(=O)CCc1ccccc1 (stereo not given) ?
a: 4

q: One more molecule: O=C1N(c2ccccc2)c2ccccc2C1(Cc1ccncc1)Cc1ccncc1
a: 1.31

q: Follow-up entry: CN(C)CCOC(c1ccccc1)c1ccccc1
a: -3.31
